# ASSAY_NOTES: Inhibition of IL-5 in mouse Y16 cells assessed as reduction in cell proliferation after 48 hrs by WST-1 assay
Returns: string. Value is YES if measured IC50 is below 20 µM, and NO if it is greater than or equal to it.

Some solved cases for reference:
ENTRY_SMILES	ANSWER_LABEL
COc1ccc(NC(=O)N(CCO)Cc2coc3cccc(OCC4CCCCC4)c3c2=O)cc1	YES
O=C(Nc1ccc(Cl)cc1)N(CCO)Cc1coc2cccc(OCC3CCCCC3)c2c1=O	NO

For `CC(C)CCOc1cccc2occ(CN(CCO)C(=O)Oc3ccccc3)c(=O)c12` , is the recorded IC50 below the cut-off of 20 µM? NO

Does `O=C(NC1CCCCC1)N(CCO)Cc1coc2cccc(OCC3CCCCC3)c2c1=O` have IC50 strictly under 20 µM? YES

Quick check: IC50 of `CC(C)CCOc1cccc2occ(CN(CCO)C(=O)Nc3ccccc3)c(=O)c12` under 20 µM? NO

IC50 under 20 µM? Item: `CC(C)CCOc1cccc2occ(CN(CCO)C(=O)Cc3ccccc3)c(=O)c12` NO

Is IC50 of `CCCC(=O)N(CCO)Cc1coc2cccc(OCC3CCCCC3)c2c1=O` strictly below 20 µM? NO

Please let me know if `O=C(Nc1ccccc1)N(CCO)Cc1coc2cccc(OCC3CCCCC3)c2c1=O` shows IC50 below 20 µM. YES

---

For each record, write down the corresponding pIC50.
# ASSAY_NOTES: Inhibition of IL-5 in mouse Y16 cells assessed as reduction in cell proliferation after 48 hrs by WST-1 assay
Give bare numbers, as −log10 of the molar value.

Recorded pIC50, per entry:
ENTRY_SMILES	pIC50
CCOC(=O)N(CCO)Cc1coc2cccc(OCC3CCCCC3)c2c1=O	4.69
O=C(Cc1ccccc1)N(CCO)Cc1coc2cccc(OCC3CCCCC3)c2c1=O	5.00
O=C(Oc1ccccc1)N(CCO)Cc1coc2cccc(OCC3CCCCC3)c2c1=O	4.60
CCC(=O)N(CCO)Cc1coc2cccc(OCC3CCCCC3)c2c1=O	4.60
O=C(NCCCc1ccccc1)N(CCO)Cc1coc2cccc(OCC3CCCCC3)c2c1=O	4.82
COc1ccc(CC(=O)N(CCO)Cc2coc3cccc(OCC4CCCCC4)c3c2=O)cc1	4.75

Could you report pIC50 for every entry in the following list?
1. O=C(NCc1ccccc1)N(CCO)Cc1coc2cccc(OCC3CCCCC3)c2c1=O
2. O=c1c(-c2ccc(O[C@H]3O[C@@H](CO)[C@H](O)[C@@H](O)[C@@H]3O)cc2)coc2cc(O)cc(O)c12

4.74
4.97
